Target: Histone deacetylase 1 (Homo sapiens, UniProt Q13547)
Sequence (Q13547 whole entry): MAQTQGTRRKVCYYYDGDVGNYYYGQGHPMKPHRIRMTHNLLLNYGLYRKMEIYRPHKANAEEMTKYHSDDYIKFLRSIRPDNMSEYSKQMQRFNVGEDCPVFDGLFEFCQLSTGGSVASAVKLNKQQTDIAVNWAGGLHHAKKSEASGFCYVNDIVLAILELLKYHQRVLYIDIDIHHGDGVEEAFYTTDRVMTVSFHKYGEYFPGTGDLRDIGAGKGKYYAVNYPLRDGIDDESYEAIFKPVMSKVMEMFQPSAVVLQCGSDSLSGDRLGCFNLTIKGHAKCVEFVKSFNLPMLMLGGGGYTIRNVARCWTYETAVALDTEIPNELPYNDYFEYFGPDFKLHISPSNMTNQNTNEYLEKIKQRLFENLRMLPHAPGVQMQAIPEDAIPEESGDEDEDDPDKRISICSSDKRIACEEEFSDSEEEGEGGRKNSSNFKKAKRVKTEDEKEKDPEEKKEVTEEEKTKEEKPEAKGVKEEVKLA
Quantity: IC50 (µM)
# number only, unit µM dropped from output

Inquiry: Return reported IC50 for target or system Histone deacetylase 1 (Homo sapiens, UniProt Q13547), item O=C(NO)c1ccc(CN2CCN(C(=O)c3cc(Cc4n[nH]c(=O)c5ccccc45)ccc3F)CC2)cc1 .
Reply text: 0.503

* * *

Test: Safety index, ratio of compound IC50 to SAHA IC50 for human MCF10A cells
Type: ADME, cell-based, MCF-10A
Conditions: read-out: Ratio IC50
Quantity: selectivity ratio
Please respond with just the number, no unit label.

O=C(/C=C/c1ccc(CCNC(=O)c2cc(Cc3n[nH]c(=O)c4ccccc34)ccc2F)cc1)NO : 4.1

# ---- query compound ----
Inquiry: Answer with the recorded selectivity ratio for the compound listed here: O=C(/C=C/c1ccc(CN2CCN(C(=O)c3cc(Cc4n[nH]c(=O)c5ccccc45)ccc3F)CC2)cc1)NO
Reply text: 8.2

* * *

molecules and their reported pIC50
Target: Poly [ADP-ribose] polymerase 2 (Homo sapiens, UniProt Q9UGN5)
Sequence (Q9UGN5 whole entry, the tested form may be a part): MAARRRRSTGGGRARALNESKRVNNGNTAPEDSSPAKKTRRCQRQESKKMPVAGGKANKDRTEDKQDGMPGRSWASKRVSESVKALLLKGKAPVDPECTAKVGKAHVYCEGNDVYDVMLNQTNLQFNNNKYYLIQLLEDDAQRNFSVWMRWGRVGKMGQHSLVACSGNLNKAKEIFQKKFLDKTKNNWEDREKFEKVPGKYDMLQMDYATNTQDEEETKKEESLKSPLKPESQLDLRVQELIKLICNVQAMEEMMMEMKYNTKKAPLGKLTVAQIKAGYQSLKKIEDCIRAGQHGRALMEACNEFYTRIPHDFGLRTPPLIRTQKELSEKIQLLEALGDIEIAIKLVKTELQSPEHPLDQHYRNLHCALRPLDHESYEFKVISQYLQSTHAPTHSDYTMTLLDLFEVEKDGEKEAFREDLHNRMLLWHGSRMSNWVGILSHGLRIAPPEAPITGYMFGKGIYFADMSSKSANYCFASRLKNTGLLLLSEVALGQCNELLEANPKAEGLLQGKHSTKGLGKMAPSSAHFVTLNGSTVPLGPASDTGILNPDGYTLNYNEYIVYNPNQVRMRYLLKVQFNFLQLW
Test: Inhibition of recombinant human N-terminal GST-tagged PARP2 (2 to 583 residues) expressed in baculovirus infected Sf9 cells using biotinylated substrate after 1 hr by UV/Vis spectrophotometric analysis
The meaning of pIC50 here: minus log10 of the concentration in molar units.

O=C(/C=C/c1ccc(CCNC(=O)c2cc(Cc3n[nH]c(=O)c4ccccc34)ccc2F)cc1)NO : 8.30

Inquiry: Look up and report measured pIC50 for this entry: O=C(Cc1ccc(CN2CCN(C(=O)c3cc(Cc4n[nH]c(=O)c5ccccc45)ccc3F)CC2)cc1)NO
Reply text: 7.31

Inquiry: Answer with the recorded pIC50 for the molecule listed here: O=C(/C=C/c1ccc(CN2CCN(C(=O)c3cc(Cc4n[nH]c(=O)c5ccccc45)ccc3F)CC2)cc1)NO
Reply text: 8.60

Inquiry: In one line, give reported pIC50 of the entry O=C(NO)c1ccc(CN2CCN(C(=O)c3cc(Cc4n[nH]c(=O)c5ccccc45)ccc3F)CC2)cc1 .
Reply text: 7.50

* * *

Some molecules, each annotated with its measured log10 of IC50.
Tested on: MDA-MB-231
Assay: Antiproliferative activity against human MDA-MB-231 cells after 5 days by MTT assay
Assay type: functional, cell-based
Details: MDA-MB-231, 120 h
The figures below represent log10 of IC50, where IC50 is stated in µM.

Answered cases to consult:
O=C(c1cc(Cc2n[nH]c(=O)c3ccccc23)ccc1F)N1CCN(C(=O)C2CC2)CC1 : 0.90
O=C(/C=C/c1ccc(CCNC(=O)c2cc(Cc3n[nH]c(=O)c4ccccc34)ccc2F)cc1)NO : -0.66
O=C(NO)c1ccc(CN2CCN(C(=O)c3cc(Cc4n[nH]c(=O)c5ccccc45)ccc3F)CC2)cc1 : 1.26
O=C(Cc1ccc(CN2CCN(C(=O)c3cc(Cc4n[nH]c(=O)c5ccccc45)ccc3F)CC2)cc1)NO : 1.55

Next up:
Inquiry: Give the reported value of log10 of IC50 for this record: O=C(/C=C/c1ccc(CN2CCN(C(=O)c3cc(Cc4n[nH]c(=O)c5ccccc45)ccc3F)CC2)cc1)NO
Reply text: -0.03

* * *

Target: Poly [ADP-ribose] polymerase 1 (Homo sapiens)
Sequence (P09874 whole entry): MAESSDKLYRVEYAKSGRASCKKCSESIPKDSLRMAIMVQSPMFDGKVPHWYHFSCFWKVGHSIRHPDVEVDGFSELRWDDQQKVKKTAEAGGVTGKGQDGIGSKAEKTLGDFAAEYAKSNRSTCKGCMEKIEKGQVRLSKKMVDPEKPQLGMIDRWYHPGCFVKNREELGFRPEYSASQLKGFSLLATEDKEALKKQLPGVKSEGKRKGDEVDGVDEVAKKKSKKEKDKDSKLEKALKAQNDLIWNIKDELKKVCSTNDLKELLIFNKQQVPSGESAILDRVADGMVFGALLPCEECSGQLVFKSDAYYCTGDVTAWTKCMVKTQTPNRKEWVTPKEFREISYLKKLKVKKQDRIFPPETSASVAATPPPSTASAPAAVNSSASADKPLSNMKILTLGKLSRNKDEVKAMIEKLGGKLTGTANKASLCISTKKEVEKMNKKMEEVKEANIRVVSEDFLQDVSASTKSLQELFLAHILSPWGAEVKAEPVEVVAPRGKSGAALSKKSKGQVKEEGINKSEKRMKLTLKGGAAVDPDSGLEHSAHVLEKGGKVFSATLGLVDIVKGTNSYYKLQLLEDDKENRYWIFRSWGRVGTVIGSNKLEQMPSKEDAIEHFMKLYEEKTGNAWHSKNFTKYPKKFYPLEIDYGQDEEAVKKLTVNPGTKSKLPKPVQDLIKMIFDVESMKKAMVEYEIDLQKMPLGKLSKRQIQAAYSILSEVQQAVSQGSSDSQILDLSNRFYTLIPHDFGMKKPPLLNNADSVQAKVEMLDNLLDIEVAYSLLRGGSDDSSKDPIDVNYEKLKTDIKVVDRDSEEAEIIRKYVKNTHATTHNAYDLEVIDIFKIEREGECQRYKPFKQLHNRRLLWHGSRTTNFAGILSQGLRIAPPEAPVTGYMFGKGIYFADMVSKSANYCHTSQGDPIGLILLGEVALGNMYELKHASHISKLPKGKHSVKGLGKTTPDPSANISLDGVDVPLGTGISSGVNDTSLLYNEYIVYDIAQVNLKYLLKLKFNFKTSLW
Assay: Inhibition of recombinant full length human N-terminal GST-tagged PARP1 expressed in baculovirus infected Sf9 cells using biotinylated substrate after 1 hr by UV/Vis spectrophotometric analysis
pIC50 for assorted compounds
Remember the convention: pIC50 equals -log10 of concentration in molar.

Example results:
O=C(Cc1ccc(CN2CCN(C(=O)c3cc(Cc4n[nH]c(=O)c5ccccc45)ccc3F)CC2)cc1)NO : 7.69
O=C(NO)c1ccc(CN2CCN(C(=O)c3cc(Cc4n[nH]c(=O)c5ccccc45)ccc3F)CC2)cc1 : 8.21
O=C(/C=C/c1ccc(CN2CCN(C(=O)c3cc(Cc4n[nH]c(=O)c5ccccc45)ccc3F)CC2)cc1)NO : 7.82

From here, focus on the item given below.
Inquiry: Read off the recorded pIC50 for O=C(/C=C/c1ccc(CCNC(=O)c2cc(Cc3n[nH]c(=O)c4ccccc34)ccc2F)cc1)NO
Reply text: 7.17
